All values here come from PubChem BioAssay AID2328.

measurement-target: Lytic switch protein BZLF1 (Epstein-Barr virus (strain B95-8))
run-description: blockers of Zta binding to ZRE DNA – biochemical, fluorescence polarization, triplicate, counter-screen for EBNA-1 inhibitor project (AID 2328);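 also: purified full length Zta protein with Cy5 labeled ZRE DNA probe; 0% = Zta with DMSO and 100% = wells lacking Zta protein; inhibitors lower polarization by freeing the labeled DNA probe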
test-context: Cy5 fluorescence polarization, at 11.1 µM, active compounds read high
The other results are listed elsewhere or left out.
value-type: inhibition (%)
Number in %, nothing else.

# annotated cases, reported inhibition shown
molecule: CCOc1ccc(OCC)c(NC(=O)C(NS(=O)(=O)c2ccc3c(c2)oc(=O)n3C)C(C)C)c1 (centres undefined)
value-type: inhibition
readout-value: 22.3
--
molecule: O=C(Nc1ccc2ccccc2c1)Nc1ccc2snnc2c1
value-type: inhibition
readout-value: 1.17

inhibition lookup needed for C/C(=N\N=C(N)N)c1ccc(Cl)cc1 , thanks.
1.14

inhibition lookup needed for COc1ccc(C(=O)Nc2cccc(NC(=O)c3ccc(OC)cc3OC)n2)c(OC)c1 , thanks.
7.79

###

measurement-target: Lytic switch protein BZLF1 (Epstein-Barr virus (strain B95-8)) (UniProt P03206)
Sequence (P03206 whole entry, looked up): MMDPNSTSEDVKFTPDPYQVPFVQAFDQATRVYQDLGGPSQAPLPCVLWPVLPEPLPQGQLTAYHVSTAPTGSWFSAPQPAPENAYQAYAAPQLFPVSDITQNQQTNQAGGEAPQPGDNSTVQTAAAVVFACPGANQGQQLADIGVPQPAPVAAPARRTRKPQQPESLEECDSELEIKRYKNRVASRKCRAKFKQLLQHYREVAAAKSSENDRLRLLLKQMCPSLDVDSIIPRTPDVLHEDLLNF
run-description: blockers of Zta binding to ZRE DNA – biochemical, fluorescence polarization, triplicate, counter-screen for EBNA-1 inhibitor project (AID 2328);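 also: purified full length Zta protein with Cy5 labeled ZRE DNA probe; 0% = Zta with DMSO and 100% = wells lacking Zta protein; inhibitors lower polarization by freeing the labeled DNA probe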
test-context: Cy5 fluorescence polarization, at 11.1 µM, active compounds read high
Some of the results follow.
Readings of inhibition for the listed compounds
Number in %, nothing else.

# annotated cases, reported inhibition shown
compound: CCOc1cccc(SCc2noc(C(=O)NC(C)C)c2C(=O)O)c1
inhibition / %: 2.79
//
compound: COc1ccc(C(=O)CSc2nnc(NC(=O)C3CC(=O)N(c4cccc(OC)c4)C3)s2)cc1 (stereo unspecified)
inhibition / %: -0.54
//
compound: Nc1ccc(S(=O)(=O)Nc2nccc(/C=C/c3ccc(Br)s3)n2)cc1
inhibition / %: -3.48
//
compound: COc1ccc(CNc2nc3c(c(=O)[nH]c(=O)n3C)n2Cc2ccccc2)cc1
inhibition / %: -15.5
//
compound: CCOC(=O)c1ccc(NC(=O)C2CC(=O)Nc3nc4ccccc4n32)cc1 (stereo unspecified)
inhibition / %: -17.7

I'm curious: which inhibition was measured for CCOc1ccc(C(=O)NC(=S)Nc2ccc(NC(=O)C(C)C)cc2)cc1[N+](=O)[O-] tested on Lytic switch protein BZLF1 (Epstein-Barr virus (strain B95-8)) (UniProt P03206)?
-3.36

I'm curious: which inhibition was measured for Cc1cccc(N(CC(=O)Nc2ccc(-c3nc4ccc(C)cc4s3)cc2)S(C)(=O)=O)c1 tested on Lytic switch protein BZLF1 (Epstein-Barr virus (strain B95-8)) (UniProt P03206)?
13.4

I'm curious: which inhibition was measured for CC(=O)c1c(C)[nH]c(C(=O)OCC(=O)Nc2sc3c(c2C#N)CCCC3)c1C tested on Lytic switch protein BZLF1 (Epstein-Barr virus (strain B95-8)) (UniProt P03206)?
5.6

I'm curious: which inhibition was measured for CC(=O)Nc1ccc(S(=O)(=O)NCC(=O)OCc2cc(=O)oc3ccc4ccccc4c23)cc1 tested on Lytic switch protein BZLF1 (Epstein-Barr virus (strain B95-8)) (UniProt P03206)?
7.35

I'm curious: which inhibition was measured for CCC(=O)Nc1ccc(C(=O)Nc2ccc3c(c2)C(=O)N(CC2CCCO2)C3=O)cc1 (stereo unspecified) tested on Lytic switch protein BZLF1 (Epstein-Barr virus (strain B95-8)) (UniProt P03206)?
-3.33

I'm curious: which inhibition was measured for COc1ccc(C)cc1NC(=O)NCc1ccccn1 tested on Lytic switch protein BZLF1 (Epstein-Barr virus (strain B95-8)) (UniProt P03206)?
-2.35

I'm curious: which inhibition was measured for O=C(Nc1cccc(NC(=O)c2ccc(Br)cc2)c1)c1ccccc1 tested on Lytic switch protein BZLF1 (Epstein-Barr virus (strain B95-8)) (UniProt P03206)?
4.83

I'm curious: which inhibition was measured for CCc1nccn1S(=O)(=O)c1cccc([N+](=O)[O-])c1 tested on Lytic switch protein BZLF1 (Epstein-Barr virus (strain B95-8)) (UniProt P03206)?
0.63

I'm curious: which inhibition was measured for Nc1nnc(SCC(=O)Nc2ccc3nc(SCC(=O)Nc4ccccc4)sc3c2)s1 tested on Lytic switch protein BZLF1 (Epstein-Barr virus (strain B95-8)) (UniProt P03206)?
8.16

I'm curious: which inhibition was measured for CCOc1ccc(NC(=O)c2ccc(NC(=O)COC(=O)c3ccc(NC(=O)CC#N)cc3)cc2)cc1 tested on Lytic switch protein BZLF1 (Epstein-Barr virus (strain B95-8)) (UniProt P03206)?
6.56

I'm curious: which inhibition was measured for N#Cc1nc(N)nc(N(c2ccccc2)c2ccccc2)n1 tested on Lytic switch protein BZLF1 (Epstein-Barr virus (strain B95-8)) (UniProt P03206)?
-3.66

I'm curious: which inhibition was measured for COc1ccc(-c2ccc(Nc3ccc(S(=O)(=O)N4CCCC4)cc3)nn2)cc1OC tested on Lytic switch protein BZLF1 (Epstein-Barr virus (strain B95-8)) (UniProt P03206)?
-8.43

I'm curious: which inhibition was measured for Cc1[nH]n(C(N)=S)c(=O)c1N=Nc1ccc(Cl)cc1Cl tested on Lytic switch protein BZLF1 (Epstein-Barr virus (strain B95-8)) (UniProt P03206)?
-7.48

I'm curious: which inhibition was measured for O=C(COc1ccc(/C=N/NC(=O)c2ccc(O)cc2)cc1)Nc1ccc([N+](=O)[O-])cc1 tested on Lytic switch protein BZLF1 (Epstein-Barr virus (strain B95-8)) (UniProt P03206)?
31.8

I'm curious: which inhibition was measured for Cc1ccc(O)c(/C=N/NC(=O)COc2ccc3c(C)cc(=O)oc3c2)c1 tested on Lytic switch protein BZLF1 (Epstein-Barr virus (strain B95-8)) (UniProt P03206)?
-17

I'm curious: which inhibition was measured for COC(=O)CSc1nc(C)c2ccc(OC)cc2n1 tested on Lytic switch protein BZLF1 (Epstein-Barr virus (strain B95-8)) (UniProt P03206)?
-0.69
